system: Acinetobacter baumannii ATCC 17978; experiment: Antimicrobial susceptibility testing: 90% growth inhibitory concentration (IC90) determination; type: cell-based; conditions: Acinetobacter baumannii, ATCC17978, 16 h, 90% growth inhibitory concentration; Acinetobacter baumannii ATCC17978; Iso-Sensitest broth, OD 600 nm over 16h; read-out: ATCC17978 IC90
Counter-ions that a name gives are not always drawn.
Measurement Type: IC90
Write down the value, and be sure its unit follows.

Some entries whose results are on file:
Compound | Val
COc1ccc(-c2cnc3c(Nc4ccc(C(=O)NCCCN5CCS(=O)(=O)CC5)c(C)c4)nccn23)cc1F | 0.46 µM
CCc1cc(Nc2nccn3c(-c4ccc(OC)c(F)c4F)cnc23)ccc1C(=O)NCCNC(=O)[C@H](N)CCCNC(=N)N [Example 125, formate] | 0.12 µM
CCc1cc(Nc2nccn3c(-c4ccc(OC)c(F)c4F)cnc23)ccc1C(=O)NCCNC(=O)CCCNCCCN [Example 564, trihydrochloride] | 0.5 µM
C/C=C/c1cc(Nc2nccn3c(-c4ccc(OC(F)F)cc4)cnc23)ccc1C(=O)NC | 2 µM
CCc1cc(Nc2nccn3c(-c4ccc(Oc5ccccn5)c(F)c4F)cnc23)ccc1C(=O)NCCCCCC(=O)N1CCN[C@H](CO)C1 | 0.38 µM
CCc1cc(Nc2nccn3c(-c4ccc(OC)c(F)c4F)cnc23)ccc1C(=O)NC[C@H](C)N [Example 522, hydrochloride] | 0.26 µM
Cc1cc(Nc2nccn3c(-c4ccc(OC(F)F)cc4)cnc23)ccc1C(=O)N(C)CCCCN1CCOCC1 | 0.58 µM
COc1ccc(-c2cnc3c(Nc4ccc(C(=O)NCC5CNCCO5)c(C)c4)nccn23)cc1F (centres unmarked) | 1.3 µM
COc1ccc(-c2cnc3c(Nc4ccc(C(=O)N[C@H](C)CNC(=N)C(C)C)c(C)c4)nccn23)c(F)c1F | 0.14 µM
COc1ccc(-c2cnc3c(Nc4ccc(C(=O)NCC5CCNCC5)c(C)c4)nccn23)cc1 | 0.64 µM

For record CC[C@@]1(O)CN[C@H](C(=O)NCCNC(=O)c2ccc(Nc3nccn4c(-c5ccc(OC)c(F)c5F)cnc34)cc2C)C1 the listed IC90 is 0.15 µM

Kindly note the recorded IC90 for CNC(=O)c1ccc(Nc2nccn3c(-c4ccc(OC)c(F)c4F)cnc23)cc1C , which is 0.027 µM

Given item CCc1cc(Nc2nccn3c(-c4ccc(Oc5ccc(F)cn5)c(F)c4F)cnc23)ccc1C(=O)NCCNC(=O)[C@H](N)CCCNC(=N)N , the value recorded as its IC90 is 0.9 µM

IC90 for CCc1cc(Nc2nccn3c(-c4ccc(O)c(F)c4F)cnc23)ccc1C(=O)NCCCN [Example 289, hydrochloride] is 4.6 µM
